test system: 317291-083-R-J1-PDC complex spheroids, viability; assay: Anticancer human tumor 317291-083-R-J1-PDC patient-derived soft tissue sarcoma cell line growth inhibition [GQUAD]; details: second compound 0.1 µM; first compound 0.0316 µM; active compounds read low;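 also: spheroids exposed to compounds for one week before readout; percent viability relative to DMSO vehicle wells taken as 100%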
I'd appreciate it if you marked entries true (1) when viability, T/C is lower than 90% and false (0) when it is not.

Ask | API: query returns whether the molecule falls strictly under 90% in viability, T/C. Query: COc1ccc([C@@H](O)c2cc(-c3ncnc4cc(N5CCOCC5)ccc34)c(F)cc2Cl)nn1 + Cc1[nH]c2ccc(F)cc2c1-c1nc2c3cccnc3c3ncccc3c2[nH]1
Reply | false (0)

Ask | hey, is viability, T/C for Cc1cccc(N(C)C(=O)C2C(O)CCN2c2nc(C)cc(C(F)(F)F)c2C#N)c1 (stereo not drawn) + Cc1cnc(CNC(=O)c2c(=O)c3ccc(N4CCCN(C)CC4)nc3n3c2sc2ccccc23)cn1 lower than 90% or not?
Reply | true (1)

Ask | viability, T/C under 90%? Item: CC(=O)O[C@H]1C(=O)[C@@]2(C)[C@H]([C@H](OC(=O)c3ccccc3)[C@]3(O)C[C@H](OC(=O)[C@H](O)[C@@H](NC(=O)c4ccccc4)c4ccccc4)C(C)=C1C3(C)C)[C@]1(OC(C)=O)CO[C@@H]1C[C@@H]2O + CN(C)c1ccc(Nc2c3ccc(NC(=O)CCN4CCCC4)cc3nc3cc(NC(=O)CCN4CCCC4)ccc23)cc1
Reply | true (1)

Ask | Strictly below 90% in viability, T/C? Nc1ccn(C2OC(CO)C(O)C2(F)F)c(=O)n1 (stereo not drawn) + Cc1[nH]c2ccc(F)cc2c1-c1nc2c3cccnc3c3ncccc3c2[nH]1
Reply | true (1)

Ask | Problem: For the molecule CCCS(=O)(=O)Nc1ccc(F)c(C(=O)c2c[nH]c3ncc(-c4ccc(Cl)cc4)cc23)c1F + Cc1[nH]c2ccc(F)cc2c1-c1nc2c3cccnc3c3ncccc3c2[nH]1 , is viability, T/C under 90%?
Reply | false (0)

Ask | State whether 90% exceeds viability, T/C recorded for C=CC(=O)N1CCN(c2nc(=O)n(-c3c(C)ccnc3C(C)C)c3nc(-c4c(O)cccc4F)c(F)cc23)C(C)C1 (stereo not drawn) + Cc1[nH]c2ccc(F)cc2c1-c1nc2c3cccnc3c3ncccc3c2[nH]1 .
Reply | false (0)

Ask | Find out if reported viability, T/C for C=CCn1c(=O)c2cnc(Nc3ccc(N4CCN(C)CC4)cc3)nc2n1-c1cccc(C(C)(C)O)n1 + CN(C)c1ccc(Nc2c3ccc(NC(=O)CCN4CCCC4)cc3nc3cc(NC(=O)CCN4CCCC4)ccc23)cc1 is less than 90%
Reply | true (1)

Ask | Does the reported viability, T/C of the following molecule sit strictly below 90%? Cc1[nH]c2ccccc2c1CCNCc1ccc(/C=C/C(=O)NO)cc1 + Cc1[nH]c2ccc(F)cc2c1-c1nc2c3cccnc3c3ncccc3c2[nH]1
Reply | true (1)

Ask | Given C=CC(=O)N1CCN(c2nc(=O)n(-c3c(C)ccnc3C(C)C)c3nc(-c4c(O)cccc4F)c(F)cc23)C(C)C1 (stereo not drawn) + CN(C)c1ccc(Nc2c3ccc(NC(=O)CCN4CCCC4)cc3nc3cc(NC(=O)CCN4CCCC4)ccc23)cc1 , is recorded viability, T/C strictly lower than 90%?
Reply | false (0)

Ask | I'd appreciate it if you could check whether O=C(NO)c1cnc(N2CCN(S(=O)(=O)c3ccc4ccccc4c3)CC2)nc1 + Cc1cnc(CNC(=O)c2c(=O)c3ccc(N4CCCN(C)CC4)nc3n3c2sc2ccccc23)cn1 has viability, T/C smaller than 90%.
Reply | true (1)

Ask | Dear reviewer, please state whether O=C(c1cc(Cc2n[nH]c(=O)c3ccccc23)ccc1F)N1CCN(C(=O)C2CC2)CC1 + Cc1[nH]c2ccc(F)cc2c1-c1nc2c3cccnc3c3ncccc3c2[nH]1 has viability, T/C strictly beneath 90%.
Reply | false (0)

Ask | Dear reviewer, please state whether CCCS(=O)(=O)Nc1ccc(F)c(C(=O)c2c[nH]c3ncc(-c4ccc(Cl)cc4)cc23)c1F + Cc1cnc(CNC(=O)c2c(=O)c3ccc(N4CCCN(C)CC4)nc3n3c2sc2ccccc23)cn1 has viability, T/C strictly beneath 90%.
Reply | true (1)
